Test system: ATP;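 further: ATP exposure 15 min at 22 °C before imaging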
measurement_description: switch fluorescence ratio, 500 uM ATP over buffer (Cy3 cluster intensity, sum of 5 cycles each) (fold (ratio)); higher = stronger signal-on switching upon ATP binding; sequences stand for … in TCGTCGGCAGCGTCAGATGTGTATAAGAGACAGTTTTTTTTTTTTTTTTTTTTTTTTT…TC
condition_context: aptamer strand: ATP DNA aptamer (quencher-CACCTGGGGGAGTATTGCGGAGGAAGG + anchor), 100 nM annealed; ATP concentration: 500 uM
Kindly supply the reported switch fluorescence ratio values for the records listed here.
Answers are plain numbers.

ATTAACTTTA	1.01
CTCCTTGTCG	1.01
ACTGATGATC	1.02
TGTGGTATTA	0.976
TATGTCACAA	1.03

Here's the next entry for you.
Request: Fill in switch fluorescence ratio for record `TTACGTGCAT`
Response: 1.01
